// data source = patent US10597388B2

Tested on: deadnettle (henbit deadnettle, Lamium amplexicaule)
assay.summary: Test D controlled growth environment herbicide test, pre- and postemergence
Type: in vivo
run.parameters: Preemergence, 62 g ai/ha; scale 0 to 100 (0 no effect, 100 complete control)

molecule: COC(=O)Oc1c(C)nn(C)c(=O)c1-c1c(C)sc2ccc(C)cc12 [Compound 80]
Plant response rating, Deadnettle: 65
//
molecule: Cc1ccc2ccccc2c1-c1c(OC(=O)OC(C)C)c(C)nn(C)c1=O [Compound 72]
Plant response rating, Deadnettle: 15
//
molecule: CCc1sc2c(C)cc(C)cc2c1-c1c(O)c(C)nn(C)c1=O [Compound 57]
Plant response rating, Deadnettle: 20
//
molecule: Cc1nn(C)c(=O)c(-c2cccc3ccccc23)c1O [Compound 11]
Plant response rating, Deadnettle: 15
//
molecule: Cc1ccc2sc(Br)c(-c3c(O)c(C)nn(C)c3=O)c2c1 [Compound 79]
Plant response rating, Deadnettle: 10
